Please provide measured IC50 for the entries that follow.
# METHOD NOTES: In vitro anti-plasmodial activity against Plasmodium falciparum dihydrofolate reductase A16V/S108T (T9/94RC17) mutant
Give bare numbers, in nM.

// known answers, use as guide
CC1(C)N=C(N)N=C(N)N1c1ccc(Cl)cc1 :: 3700
NC1=NC(c2ccc(Oc3ccccc3)cc2)N(c2cccc(Cl)c2)C(N)=N1 (centres undefined) :: 4

Here are 8 compounds. What values of IC50 were reported for them?
1. CCCCCCC1(C)N=C(N)N=C(N)N1c1ccc(Cl)cc1 (centres undefined)
2. NC1=NC(c2cccc(Oc3ccccc3)c2)N(c2cccc(Cl)c2)C(N)=N1 (centres undefined)
3. NC1=NC(c2cccc(OCCCOc3cc(Cl)c(Cl)cc3Cl)c2)N(c2cccc(Cl)c2)C(N)=N1 (centres undefined)
4. NC1=NC(c2ccc(Oc3ccccc3)cc2)N(c2ccc(Cl)cc2)C(N)=N1 (centres undefined)
5. NC1=NC(c2cccc(Oc3cc(Cl)cc(Cl)c3)c2)N(c2cccc(Cl)c2)C(N)=N1 (centres undefined)
6. NC1=NC(c2cccc(OCc3ccccc3)c2)N(c2cccc(Cl)c2)C(N)=N1 (centres undefined)
7. NC1=NC(c2cccc(Oc3cccc(C(F)(F)F)c3)c2)N(c2cccc(Cl)c2)C(N)=N1 (centres undefined)
8. NC1=NC(c2cccc(Oc3ccc(Cl)cc3)c2)N(c2ccc(Cl)cc2)C(N)=N1 (centres undefined)

[1900, 60, 370, 40, 50, 190, 180, 420]
